- PROTOCOL_SUMMARY: total protein half-life in vivo (active degradation + dilution); higher = more stable protein
- CONDITION_DETAILS: E. coli NCM3722 delta-smpB; growth: N-lim chemostat; doubling time 6 h
Assign class by total protein half-life in vivo: not lower than 5 h means Criterion met; lower than 5 h means Criterion not met.

{"columns": ["SEQUENCE_RECORD", "CLASS_LABEL"],
 "data": [
  ["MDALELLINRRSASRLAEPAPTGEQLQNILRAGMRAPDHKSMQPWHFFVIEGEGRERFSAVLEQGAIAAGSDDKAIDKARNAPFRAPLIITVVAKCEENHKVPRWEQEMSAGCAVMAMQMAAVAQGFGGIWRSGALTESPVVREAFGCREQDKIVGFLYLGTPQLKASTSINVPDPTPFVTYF [P0ACY1]", "Criterion not met"],
  ["MMKRNILAVIVPALLVAGTANAAEIYNKDGNKVDLYGKAVGLHYFSKGNGENSYGGNGDMTYARLGFKGETQINSDLTGYGQWEYNFQGNNSEGADAQTGNKTRLAFAGLKYADVGSFDYGRNYGVVYDALGYTDMLPEFGGDTAYSDDFFVGRVGGVATYRNSNFFGLVDGLNFAVQYLGKNERDTARRSNGDGVGGSISYEYEGFGIVGAYGAADRTNLQEAQPLGNGKKAEQWATGLKYDANNIYLAANYGETRNATPITNKFTNTSGFANKTQDVLLVAQYQFDFGLRPSIAYTKSKAKDVEGIGDVDLVNYFEVGATYYFNKNMSTYVDYIINQIDSDNKLGVGSDDTVAVGIVYQF", "Criterion met"],
  ["MIIYLHGFDSNSPGNHEKVLQLQFIDPDVRLISYSTRHPKHDMQHLLKEVDKMLQLNVDERPLICGVGLGGYWAERIGFLCDIRQVIFNPNLFPYENMEGKIDRPEEYADIATKCVTNFREKNRDRCLVILSRNDEALNSQRTSEELHHYYEIVWDEEQTHKFKNISPHLQRIKAFKTLG [P0A8E1]", "Criterion not met"],
  ["MSTLGHQYDNSLVSNAFGFLRLPMNFQPYDSDADWVITGVPFDMATSGRAGGRHGPAAIRQVSTNLAWEHNRFPWNFDMRERLNVVDCGDLVYAFGDAREMSEKLQAHAEKLLAAGKRMLSFGGDHFVTLPLLRAHAKHFGKMALVHFDAHTDTYANGCEFDHGTMFYTAPKEGLIDPNHSVQIGIRTEFDKDNGFTVLDACQVNDRSVDDVIAQVKQIVGDMPVYLTFDIDCLDPAFAPGTGTPVIGGLTSDRAIKLVRGLKDLNIVGMDVVEVAPAYDQSEITALAAATLALEMLYIQAAKKGE", "Criterion met"],
  ["MFDIGFSELLLVFIIGLVVLGPQRLPVAVKTVAGWIRALRSLATTVQNELTQELKLQEFQDSLKKVEKASLTNLTPELKASMDELRQAAESMKRSYVANDPEKASDEAHTIHNPVVKDNEAAHEGVTPAAAQTQASSPEQKPETTPEPVVKPAADAEPKTAAPSPSSSDKP", "Criterion not met"],
  ["MLAKRIIPCLDVRDGQVVKGVQFRNHEIIGDIVPLAKRYAEEGADELVFYDITASSDGRVVDKSWVSRVAEVIDIPFCVAGGIKSLEDAAKILSFGADKISINSPALADPTLITRLADRFGVQCIVVGIDTWYDAETGKYHVNQYTGDESRTRVTQWETLDWVQEVQKRGAGEIVLNMMNQDGVRNGYDLEQLKKVREVCHVPLIASGGAGTMEHFLEAFRDADVDGALAASVFHKQIINIGELKAYLATQGVEIRIC", "Criterion not met"],
  ["MVRIYTLTLAPSLDSATITPQIYPEGKLRCTAPVFEPGGGGINVARAIAHLGGSATAIFPAGGATGEHLVSLLADENVPVATVEAKDWTRQNLHVHVEASGEQYRFVMPGAALNEDEFRQLEEQVLEIESGAILVISGSLPPGVKLEKLTQLISAAQKQGIRCIVDSSGEALSAALAIGNIELVKPNQKELSALVNRELTQPDDVRKAAQEIVNSGKAKRVVVSLGPQGALGVDSENCIQVVPPPVKSQSTVGAGDSMVGAMTLKLAENASLEEMVRFGVAAGSAATLNQGTRLCSHDDTQKIYAYLSR", "Criterion not met"],
  ["MTVQDYLLKFRKISSLESLEKLYDHLNYTLTDDQELINMYRAADHRRAELVSGGRLFDLGQVPKSVWHYVQ", "Criterion not met"],
  ["MDKFDANRRKLLALGGVALGAAILPTPAFATLSTPRPRILTLNNLHTGESIKAEFFDGRGYIQEELAKLNHFFRDYRANKIKSIDPGLFDQLYRLQGLLGTRKPVQLISGYRSIDTNNELRARSRGVAKKSYHTKGQAMDFHIEGIALSNIRKAALSMRAGGVGYYPRSNFVHIDTGPARHW [P0AB06]", "Criterion not met"],
  ["MFKKSVLFATLLSGVMAFSTNADDKIILKHISVSSVSASPTVLEDTIADIARKYNASSWKVTSMRIDNNSTATAVLYK", "Criterion met"],
  ["MKKILLMLSLLFFTTAGFSEVSDTLVTGGYDKQAMSDAIKHARKETDKFIEVMNKKDADTFAVKAPITDHGRTEHFWLTDVTYSNGMFIGVISNDPGIVTNVEYGQEWKIKKEDISDWMYTRGDKIYGGYTIDPLLVTYPKEEADELRAKLVR", "Criterion not met"],
  ["MSKSDVFHLGLTKNDLQGATLAIVPGDPDRVEKIAALMDKPVKLASHREFTTWRAELDGKPVIVCSTGIGGPSTSIAVEELAQLGIRTFLRIGTTGAIQPHINVGDVLVTTASVRLDGASLHFAPLEFPAVADFECTTALVEAAKSIGATTHVGVTASSDTFYPGQERYDTYSGRVVRHFKGSMEEWQAMGVMNYEMESATLLTMCASQGLRAGMVAGVIVNRTQQEIPNAETMKQTESHAVKIVVEAARRLL", "Criterion met"]
]}
